Source of measurements: ChEMBL document CHEMBL4888484

system: Plasmodium falciparum; assay: Primary screen in NF54 nanoGlo assay, in single point, at 2uM, 72h; a lower Z score goes with more inhibition; format: functional, Erythrocyte; conditions: timepoint 72 hour
Screen size: about 150,000 compounds; about 540 (0.36%) showed an effect of 50% or more. What follows is part of a selection rich in strong results, with near analogues and random picks from the rest.
Some compounds, each annotated with its measured Z score.
Field format: numeric only.

[[record]]
item_smiles = "CC1([C@@](O)(C#CC[N+]2(C)CCCCC2)c2ccccc2)CCCC1"
readout_type = "Z score"
endpoint_value = -9.64

[[record]]
item_smiles = "O=c1[nH]c(=O)n(S(=O)(=O)c2ccccc2)cc1F"
readout_type = "Z score"
endpoint_value = -12.13

[[record]]
item_smiles = "CCC(C)(CC)[C@@](O)(C#CC[N+]1(Cc2ccccc2)CCCCC1)c1ccccc1"
readout_type = "Z score"
endpoint_value = -1.99

[[record]]
item_smiles = "CCC[N+]1(CC#C[C@@](O)(c2ccccc2)C(C)(CC)CC)CCCCC1"
readout_type = "Z score"
endpoint_value = -8.65

[[record]]
item_smiles = "CCC1([C@@](O)(C#CCN(Cc2ccccc2)C(C)(C)C)c2ccccc2)CCCC1"
readout_type = "Z score"
endpoint_value = -3.73


Q) // returns reported Z score for input O=C(c1ccccc1)c1ccc(O)c(CN2CCCN(c3ccc(C(F)(F)F)cn3)CC2)c1O
A) -8.75

Q) // returns reported Z score for input CCOc1ccc2ccccc2c1C(=O)Nc1cc(C)nn1-c1nc2c(c(=O)[nH]1)CCC2
A) -17

Q) // returns reported Z score for input O=S(=O)(Cc1ccc(OC(F)(F)F)cc1)Nc1cccnc1-n1cccn1
A) -0.39

Q) // returns reported Z score for input Nc1n[nH]c(-c2ccc(Br)o2)n1
A) -0.5

Q) // returns reported Z score for input CC[n+]1c(/C=C/N(C)c2ccccc2)oc2ccccc21
A) -10.29

Q) // returns reported Z score for input CC(C)c1nccn1CC(=O)N(C)[C@@H](C)c1ccc(F)c(F)c1
A) 0.13
